Value source: patent US20250270315A1

Reported kon values are given for each entry in this list.
- experimental-target: Human SIRPα v1 (antigen of the Octet and Biacore affinity measurements) (human, UniProt P78324 31-370, limits assumed)
- Sequence (P78324 31-370 limits assumed): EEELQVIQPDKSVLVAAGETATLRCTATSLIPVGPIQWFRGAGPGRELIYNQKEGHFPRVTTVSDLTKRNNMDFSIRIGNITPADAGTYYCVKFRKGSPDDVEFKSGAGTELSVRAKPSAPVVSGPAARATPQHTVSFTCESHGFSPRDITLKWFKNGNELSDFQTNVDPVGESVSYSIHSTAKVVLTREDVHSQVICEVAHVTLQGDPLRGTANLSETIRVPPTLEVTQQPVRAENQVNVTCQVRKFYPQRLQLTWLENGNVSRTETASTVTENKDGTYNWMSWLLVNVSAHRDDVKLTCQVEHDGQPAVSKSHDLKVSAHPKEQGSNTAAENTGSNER
- assay-info: SPR (Biacore), 1:1 binding model
# unit: M⁻¹ s⁻¹ | format: bare number

Worked examples follow.
binder: 025c (antibody, V domains shown, also called chimeric antibody 025c; parental antibody of 025c) VH: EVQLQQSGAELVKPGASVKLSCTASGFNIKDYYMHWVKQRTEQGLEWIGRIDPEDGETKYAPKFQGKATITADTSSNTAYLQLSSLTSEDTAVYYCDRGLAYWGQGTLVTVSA VL: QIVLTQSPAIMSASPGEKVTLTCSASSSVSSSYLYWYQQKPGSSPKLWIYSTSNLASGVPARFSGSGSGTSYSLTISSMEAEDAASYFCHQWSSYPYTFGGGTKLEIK
measurement-label: kon
unit-descriptor: M⁻¹ s⁻¹
reported: 602000

binder: hu025.021 (antibody, V domains shown, Humanized 025; also called hu025.21) VH: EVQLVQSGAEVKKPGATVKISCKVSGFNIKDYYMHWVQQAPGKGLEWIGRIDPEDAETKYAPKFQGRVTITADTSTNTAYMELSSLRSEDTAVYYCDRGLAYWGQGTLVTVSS VL: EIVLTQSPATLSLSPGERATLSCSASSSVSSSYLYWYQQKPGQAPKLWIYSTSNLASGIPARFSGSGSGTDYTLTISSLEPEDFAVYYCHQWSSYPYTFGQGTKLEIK
measurement-label: kon
unit-descriptor: M⁻¹ s⁻¹
reported: 599000

binder: hu025.023 (antibody, V domains shown, Humanized 025; also called hu025.23) VH: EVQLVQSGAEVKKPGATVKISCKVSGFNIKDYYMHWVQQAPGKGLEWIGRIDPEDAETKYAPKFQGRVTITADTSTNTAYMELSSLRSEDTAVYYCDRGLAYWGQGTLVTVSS VL: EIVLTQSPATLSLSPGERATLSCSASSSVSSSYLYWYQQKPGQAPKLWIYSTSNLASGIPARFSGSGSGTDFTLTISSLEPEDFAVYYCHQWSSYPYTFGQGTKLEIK
measurement-label: kon
unit-descriptor: M⁻¹ s⁻¹
reported: 643000

binder: hu025.060 (antibody, V domains shown, Humanized 025; also called hu025.60) VH: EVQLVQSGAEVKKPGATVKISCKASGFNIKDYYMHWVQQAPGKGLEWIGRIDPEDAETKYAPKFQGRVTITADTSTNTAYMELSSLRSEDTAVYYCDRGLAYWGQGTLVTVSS VL: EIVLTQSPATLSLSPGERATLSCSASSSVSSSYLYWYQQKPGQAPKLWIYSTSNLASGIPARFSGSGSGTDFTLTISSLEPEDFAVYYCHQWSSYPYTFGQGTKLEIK
measurement-label: kon
unit-descriptor: M⁻¹ s⁻¹
reported: 560000

Param item = hu025.059 (antibody, V domains shown, Humanized 025; also called hu025.59) VH: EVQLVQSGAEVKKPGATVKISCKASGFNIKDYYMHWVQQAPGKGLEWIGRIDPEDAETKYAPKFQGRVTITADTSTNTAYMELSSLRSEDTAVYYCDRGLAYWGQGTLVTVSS VL: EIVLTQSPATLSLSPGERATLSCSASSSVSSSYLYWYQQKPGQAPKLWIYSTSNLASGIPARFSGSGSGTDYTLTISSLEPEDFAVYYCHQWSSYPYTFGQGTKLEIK ; retrieve measured kon. 536000
